Just for reference, patent US7279321B2 is where these values come from.

- Test system: E. coli MG1655 (yhcP+)
- experiment.description: microbe, parasite or virus in culture
- Format: cell-based
- cond: Escherichia coli, MG1655, read-out: MIC, MG1655 (yhcP+)
Label key: 1 means MIC under 20 mM; -1 means MIC of 20 mM or more.

Request: A record lists O=C(O)C=Cc1ccc(O)cc1 [pHCA, para-hydroxycinnamic acid] . Is its MIC below 20 mM?
Response: -1

Request: Also need Oc1cccc2c(O)cccc12 [1,5-dihydroxynaphthalene] , thanks.
Response: 1

Request: Also need O=C(O)c1ccccc1-c1ccccc1 [2-biphenylcarboxylic acid] , thanks.
Response: 1

Request: Also need O=C(O)c1cccc2ccccc12 [1-naphthoic acid] , thanks.
Response: 1

Request: Also need O=C(O)c1cccc(O)c1O [2,3-dihydroxybenzoic acid] , thanks.
Response: 1

Request: Also need COC(=O)c1ccc(O)cc1 [Methyl paraben] , thanks.
Response: 1

Request: Also need Oc1ccc2c(O)cccc2c1 [1,6-dihydroxynaphthalene] , thanks.
Response: 1

Request: Also need O=C(O)c1ccc(O)cc1 [pHBA, para-hydroxybenzoic acid] , thanks.
Response: -1

Request: Also need COc1cccc(OC)c1O [2,6-dimethoxyphenol] , thanks.
Response: 1

Request: Also need O=C(O)c1ccc2ccccc2c1O [1-hydroxy-2-naphthoic acid] , thanks.
Response: 1

Others:
Request: A record lists O=C(O)c1cc2ccccc2cc1C(=O)O [2,3-naphthalenedicarboxylic acid] . Is its MIC below 20 mM?
Response: -1

Request: Also need Oc1ccc2ccc(O)cc2c1 [2,7-dihydroxynaphthalene] , thanks.
Response: 1

Request: Also need O=C(O)c1cc2ccccc2cc1O [3-hydroxy-2-naphthoic acid] , thanks.
Response: 1

* * *

The entries below are paired with their reported MIC.
- System: E. coli DPD2444 (yhcP−)
- experiment.description: microbe, parasite or virus in culture
- Format: cell-based
- cond: Escherichia coli, read-out: MIC, DPD2444 (yhcP−)
Answer in µM, number only, no unit symbol.

Request: Fill blank: measured MIC of the compound COC(=O)c1ccc(O)cc1 is ____.
Response: 3800

Request: Also need O=C(O)c1ccc(O)cc1 [pHBA, para-hydroxybenzoic acid] , thanks.
Response: 12500

Request: Also need O=C(O)c1cc2ccccc2cc1O [3-hydroxy-2-naphthoic acid] , thanks.
Response: 1200

Moving on to another compound below.
Request: Fill blank: measured MIC of the compound Oc1ccc2c(O)cccc2c1 [1,6-dihydroxynaphthalene] is ____.
Response: 250

* * *

- System: E. coli MG1655 (yhcP+)
- experiment.description: microbe, parasite or virus in culture
- Type: cell-based
- cond: Escherichia coli, MG1655, read-out: MIC, MG1655 (yhcP+)
The entries below are paired with their reported MIC.

Request: Fill blank: measured MIC of the compound O=C(O)C=Cc1ccccc1 is ____.
Response: 20 mM

Request: Also need O=C(O)c1ccc2cc(O)ccc2c1 [6-hydroxy-2-naphthoic acid] , thanks.
Response: 20 mM

Moving on to another compound below.
Request: Fill blank: measured MIC of the compound O=C(O)c1ccc2ccccc2c1 is ____.
Response: 20 mM

* * *

- Test system: E. coli DPD2444 (yhcP−)
- experiment.description: microbe, parasite or virus in culture
- Assay type: cell-based
- cond: Escherichia coli, read-out: MIC, DPD2444 (yhcP−)
The entries below are paired with their reported MIC.
Answer with the number, then the unit.

Request: Fill blank: measured MIC of the compound O=C(O)c1cccc2ccccc12 is ____.
Response: 2500 µM

Request: Also need O=C(O)C=Cc1ccccc1 , thanks.
Response: 10000 µM

Request: Also need Oc1cccc2c(O)cccc12 [1,5-dihydroxynaphthalene] , thanks.
Response: 250 µM

Others:
Request: Fill blank: measured MIC of the compound O=C(O)c1ccc2cc(O)ccc2c1 [6-hydroxy-2-naphthoic acid] is ____.
Response: 2500 µM

Request: Also need O=C(O)c1cc2ccccc2cc1C(=O)O , thanks.
Response: 80000 µM

Request: Also need O=C(O)c1ccc2ccccc2c1 , thanks.
Response: 10000 µM

Request: Also need O=C(O)c1ccc2ccccc2c1O [1-hydroxy-2-naphthoic acid] , thanks.
Response: 620 µM
